Measured values drawn from paper PMC9078697 for this set.

Each entry below carries its reported IC50.
test system: E. faecalis; experiment: Bacteriostatic screening (growth, OD630) against E. faecalis; format: cell-based; conditions: 24 h, IC50 generated when inhibition at 250 μM was higher than 80%
The figure you give is taken to be in µM; do not add the unit.

C=C1CCC2C(C)(CO)C(O)CCC2(C)C1CC=C1C(=O)OCC1Oc1ccccc1C(=O)OCC (centres unmarked) [6b8]; 89.7

Input line: Lab note: E. faecalis assay, enter IC50 for C=C1CCC2C(C)(CO)C(O)CCC2(C)C1CC=C1C(=O)OCC1Oc1ccccc1OC (centres unmarked) [6a12] here
Output line: 75.6

Input line: Lab note: E. faecalis assay, enter IC50 for C=C1CCC2C(C)(CO)C(O)CCC2(C)C1CC=C1C(=O)OCC1Oc1ccc(C#N)cc1 (stereo not drawn) [6b10, (14β)-(4′-Cyano)phenoxy-andrographolide] here
Output line: 72.1

Input line: Lab note: E. faecalis assay, enter IC50 for C=C1CCC2C3(C)COC(C)(C)OC3CCC2(C)C1CC=C1C(=O)OCC1Oc1cccnc1[N+](=O)[O-] (centres unmarked) [5a15] here
Output line: 25.5

Input line: Lab note: E. faecalis assay, enter IC50 for C=C1CCC2C(C)(CO)C(O)CCC2(C)C1CC=C1C(=O)OCC1Oc1ccc([N+](=O)[O-])cc1F (centres unmarked) [6a2] here
Output line: 38.7

Input line: Lab note: E. faecalis assay, enter IC50 for C=C1CCC2C(C)(CO)C(O)CCC2(C)C1CC=C1C(=O)OCC1Oc1ccc(C(=O)OCC)cc1 (centres unmarked) [6a9] here
Output line: 38.3

Input line: Lab note: E. faecalis assay, enter IC50 for C=C1CCC2C3(C)COC(C)(C)OC3CCC2(C)C1CC=C1C(=O)OCC1Oc1ccnc2ccccc12 (centres unmarked) [5a16] here
Output line: 16.9

Input line: Lab note: E. faecalis assay, enter IC50 for C=C1CCC2C(C)(CO)C(O)CCC2(C)C1CC=C1C(=O)OCC1Oc1ccc([N+](=O)[O-])cc1OC (centres unmarked) [6a3] here
Output line: 113

###

test system: S. aureus; assay: Bacteriostatic screening (growth, OD630) against S. aureus; type: cell-based; settings: Staphylococcus aureus, 24 h, IC50 generated when inhibition at 250 μM was higher than 80%
Each entry below carries its reported IC50.
The figure you give is taken to be in µM; do not add the unit.

C=C1CC[C@H]2[C@@](C)(CCC(=O)[C@@]2(C)CO)[C@@H]1C/C=C1/C(=O)OC[C@@H]1Oc1cccc2cccnc12; 27.6
O=C(O)c1cn(C2CC2)c2cc(N3CCNCC3)c(F)cc2c1=O [Ciprofloxacin, reference compound]; 0.4

Next compound, IC50 to be filled in.
Input line: Please look at this compound and report its IC50: C=C1CC[C@@H]2[C@](C)(CO)[C@H](O)CC[C@@]2(C)[C@@H]1C/C=C1/C(=O)OC[C@@H]1Oc1cccc2cccnc12 [6b17, (14β)-(Quinolyl-8′-oxy)andrographolide]
Output line: 37.5

###

Tested on: E. coli
Assay: Bacteriostatic screening (growth, OD630) against E. coli
Assay type: cell-based
Conditions: at 250 μM of the tested compound
Method: The strategy in this study was to submit these synthesized compounds to a preliminary screening test against E. coli, S. aureus and E. faecalis (ciprofloxacin was used as a reference compound; see Table 1). […] The tested compound or ciprofloxacin (positive drug) was dissolved in DMSO and diluted with LB liquid medium into a stock solution containing 20% DMSO before use; the stock solution of the carrier was 20% DMSO in LB liquid medium. […]
readout_type: inhibition rate (%) EC

C=C1CCC2C(C)(CO)C(O)CCC2(C)C1CC=C1C(=O)OCC1Oc1cccc(OC)c1 (centres unmarked); 15%
C=C1CCC2C3(C)COC(C)(C)OC3CCC2(C)C1CC=C1C(=O)OCC1Oc1ccc([N+](=O)[O-])cc1OC (centres unmarked); (21) %
C=C1CCC2C(C)(CO)C(O)CCC2(C)C1CC=C1C(=O)OCC1Oc1ccccc1C(=O)OCC (centres unmarked) [6a8]; (21) %
